study.target: PCSK9 secreted by HepG2 cells (Homo sapiens (Human))
Sequence (Q8NBP7 153-692): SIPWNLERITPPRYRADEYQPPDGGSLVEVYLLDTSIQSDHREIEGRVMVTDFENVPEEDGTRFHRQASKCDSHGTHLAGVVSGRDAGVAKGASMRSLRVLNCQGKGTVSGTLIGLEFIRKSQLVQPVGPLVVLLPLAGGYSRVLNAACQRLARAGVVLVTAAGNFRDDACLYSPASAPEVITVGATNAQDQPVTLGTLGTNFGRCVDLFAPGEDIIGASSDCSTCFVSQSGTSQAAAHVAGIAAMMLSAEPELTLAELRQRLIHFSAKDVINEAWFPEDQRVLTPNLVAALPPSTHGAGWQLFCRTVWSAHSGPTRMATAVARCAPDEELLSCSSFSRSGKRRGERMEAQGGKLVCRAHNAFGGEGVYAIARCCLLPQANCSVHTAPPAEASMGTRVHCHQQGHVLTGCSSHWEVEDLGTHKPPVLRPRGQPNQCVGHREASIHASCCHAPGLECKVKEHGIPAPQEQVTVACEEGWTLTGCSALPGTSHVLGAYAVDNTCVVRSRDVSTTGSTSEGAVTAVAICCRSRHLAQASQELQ
Sequence (Q8NBP7 31-152 partner): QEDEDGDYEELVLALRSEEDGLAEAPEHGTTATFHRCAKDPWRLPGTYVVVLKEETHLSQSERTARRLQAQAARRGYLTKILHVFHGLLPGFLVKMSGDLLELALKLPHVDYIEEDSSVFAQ
test.description: Effect on the concentration of PCSK9 secreted by HepG2 cells (ELISA)
setup.conditions: 48 hours incubation, read-out: Inhibitory activity on PCSK9, IC50
pIC50: −log10 of the molar value.
observation.type: pIC50

1. O=C1c2ncc(F)cc2CN1c1ccc(N[C@H]2CC[C@H](Nc3ncc(C(F)(F)F)nn3)C2)nc1; 4.58
2. FC(F)Oc1cnc(N[C@H]2CC[C@H](Nc3ccc(-c4cccc5ccnn45)cn3)C2)nc1; 4.96
3. O=C1c2ncc(F)cc2CN1c1ccc(N[C@H]2CC[C@H](Nc3nc4cc(C(F)(F)F)ccn4n3)C2)nc1; 4.92

Where these numbers come from: patent US20250326722A1
